Structures can show the parent of a compound that is named as a salt.
Reported values of melting point for individual entries

QUERY: Given COc1ccc2cc(-c3ccnc(NCCc4ccc(OC)c(OC)c4)n3)cc(N3CCNCC3)c2c1 (as salt: HCl) , state its recorded melting point.
RESULT: 138 to 140 °C

QUERY: Given `CNc1nccc(-c2cc(NC(=O)c3ccccc3)c3cc(OC)ccc3c2)n1` , state its recorded melting point.
RESULT: 201 to 203 °C

QUERY: Given `COc1cccc(CNc2nccc(-c3cc(N4CCN(CCCN5CCCCC5)CC4)c4cc(OC)ccc4c3)n2)c1` , state its recorded melting point.
RESULT: 63 to 75 °C

QUERY: Given `CNc1nccc(-c2cc(NCCCSC(=N)N)c3cc(OC)ccc3c2)n1` , state its recorded melting point.
RESULT: 94 to 97 °C

QUERY: Given `COc1cccc(CCNc2nccc(-c3cc(N4CCN(c5ncnc6[nH]nc(Br)c56)CC4)c4cc(OC)ccc4c3)n2)c1` , state its recorded melting point.
RESULT: 200 to 203 °C

QUERY: Given `CNc1nccc(-c2cc(NC(=O)CN(C)C)c3cc(OC)ccc3c2)n1` , state its recorded melting point.
RESULT: 70 to 73 °C

QUERY: Given `COc1cccc(CNc2nccc(-c3cc(N4CCN(CCCN5CCOCC5)CC4)c4cc(OC)ccc4c3)n2)c1` , state its recorded melting point.
RESULT: 65 to 73 °C

QUERY: Given `CNc1nccc(-c2cc(NC(=O)c3ccc(C(C)(C)C)cc3)c3cc(OC)ccc3c2)n1` , state its recorded melting point.
RESULT: 231 to 232 °C

QUERY: Given `COc1ccc2cc(-c3ccnc(NCCCN(C)C)n3)cc(N3CCNCC3)c2c1` , state its recorded melting point.
RESULT: 188 to 190 °C

QUERY: Given COc1cccc(CNc2nccc(-c3cc(N4CCN(CCCN5CCCC5)CC4)c4cc(OC)ccc4c3)n2)c1 (as salt: hydrochloride) , state its recorded melting point.
RESULT: 160 to 167 °C

QUERY: Given `CNc1nccc(-c2cc(NC(C)=O)c3cc(OC)ccc3c2)n1` , state its recorded melting point.
RESULT: 234 to 235 °C

QUERY: Given `COCCCNc1nccc(-c2cc(N3CCNCC3)c3cc(OC)ccc3c2)n1` , state its recorded melting point.
RESULT: 136 to 138 °C

QUERY: Given `CNc1nccc(-c2cc(NC(=O)c3ccc(C(F)(F)F)cc3)c3cc(OC)ccc3c2)n1` , state its recorded melting point.
RESULT: 227 to 229 °C

QUERY: Given `COCCCNc1nccc(-c2cc(N3CCN(c4ncnc5[nH]nc(Br)c45)CC3)c3cc(OC)ccc3c2)n1` , state its recorded melting point.
RESULT: 225 to 227 °C

QUERY: Given CCCN(C)CCCN1CCN(c2cc(-c3ccnc(NCc4cccc(OC)c4)n3)cc3ccc(OC)cc23)CC1 (as salt: hydrochloride) , state its recorded melting point.
RESULT: 156 to 160 °C

QUERY: Given COc1cccc(CNc2nccc(-c3cc(N4CCN(CCCN(C)C5CCCCC5)CC4)c4cc(OC)ccc4c3)n2)c1 (as salt: hydrochloride) , state its recorded melting point.
RESULT: 155 to 161 °C

QUERY: Given `COc1cccc(CCNc2nccc(-c3cc(N4CCNCC4)c4cc(OC)ccc4c3)n2)c1` , state its recorded melting point.
RESULT: 142 to 144 °C
